IC50 values by entry
System: HCT-116 cells
Assay: HCT-116 cell proliferation assay (resazurin)
Format: cell-based
Conditions: Homo sapiens, K-Ras mutation B-Raf wild type, read-out: Cell Proliferation Inhibition IC50, nM HCT-116

Illustrative cases are given below, each with its answer.
compound | target | endpoint.label | result
CNc1ncc2cc(-c3cc(NC(=O)NCCC(C)(C)C)c(F)cc3Br)c(C)nc2n1 | HCT-116 cells | IC50 | 100 to 1000 nM
CNc1ncc2cc(-c3cc(NC(=O)NCCC(C)(C)C)c(F)cc3F)cnc2n1 [Example 36, methanesulfonate] | HCT-116 cells | IC50 | 1000 to 10000 nM
CNc1ncc2cc(-c3cc(NC(=O)NCC(O)C(C)(C)C)c(F)cc3C)c(C)nc2n1 (centres unmarked) | HCT-116 cells | IC50 | 100 to 1000 nM
CNc1ncc2cc(-c3cc(NC(=O)NC4CC(C)(C)C4)c(F)cc3C)c(C)nc2n1 | HCT-116 cells | IC50 | 100 to 1000 nM
CC(=O)Nc1ncc2cc(-c3cc(NC(=O)NCCC(C)(C)C)c(F)cc3C)c(C)nc2n1 | HCT-116 cells | IC50 | 100 to 1000 nM

// moving on: another record for IC50
Per the record, `CNc1ncc2cc(-c3cc(NC(=O)NCCC(C)(C)C#N)c(F)cc3C)c(C)nc2n1` has IC50 of 100 to 1000 nM

====

IC50 for assorted molecules
System: HCT-116 cells
Assay: HCT-116 cell proliferation assay (resazurin)
Type: cell-based
Details: Homo sapiens, K-Ras mutation B-Raf wild type, read-out: Cell Proliferation Inhibition IC50, nM HCT-116

Just so you know, measured IC50 for CNc1ncc2cc(-c3cc(NC(=O)NCCC4(C(F)(F)F)CC4)c(F)cc3C)c(C)nc2n1 [Example 30] came out at 100 to 1000 nM

Memo: CNc1ncc2cc(-c3cc(NC(=O)NCCC(C)(C)C)c(F)cc3F)c(C)nc2n1 [Example 1] , reported IC50: 100 to 1000 nM

Note to self: IC50 recorded for CNc1ncc2cc(-c3cc(NC(=O)NCCC4(C)CC4)c(F)cc3C)c(C)nc2n1 [Example 24] was 100 to 1000 nM

Measured IC50, CNc1ncc2cc(-c3ccc(F)c(NC(=O)NCCC(C)(C)C#N)c3)c(C)nc2n1 [Example 13] : 1000 to 10000 nM

The value of IC50 measured for the molecule Cc1cc(F)c(NC(=O)NCCC2(C)CC2)cc1-c1cc2cnc(N)nc2nc1C [Example 23] turned out to be 100 to 1000 nM

Field IC50 (entry CNc1ncc2cc(-c3cc(NC(=O)NCCC(C)(C)F)c(F)cc3C)c(C)nc2n1 [Example 4] ) reads 100 to 1000 nM

Entry CNc1ncc2cc(-c3cc(NC(=O)NCCC(C)(C)OC)c(F)cc3C)c(C)nc2n1 [Example 14] , IC50 reported as 100 to 1000 nM

GET /value?item= CNc1ncc2cc(-c3cc(NC(=O)NCCC(C)(C)C)c(F)cc3C)cnc2n1 [Example 35] &field=IC50 returns 100 to 1000 nM

Entry COCCNc1ncc2cc(-c3cc(NC(=O)NCCC(C)(C)C)c(F)cc3C)c(C)nc2n1 [Example 5] ; IC50 = 100 to 1000 nM

Short answer for Cc1cc(F)c(NC(=O)NCCC(C)(C)F)cc1-c1cc2cnc(NC3COC3)nc2nc1C [Example 25] : IC50 was 100 to 1000 nM

Entry CNc1ncc2cc(-c3cc(NC(=O)NC[C@H](O)C(C)(C)C)c(F)cc3C)cnc2n1 [Example 18] , IC50 reported as 100 to 1000 nM

Entry Cc1cc(F)c(NC(=O)NCCC(C)(C)C)cc1-c1cc2cnc(NCCO)nc2nc1C [Example 16] ; IC50 = 100 to 1000 nM

The recorded IC50 for entry CNc1ncc2cc(-c3cc(NC(=O)NCCC(C)(C)C#N)c(F)cc3F)c(C)nc2n1 [Example 12] equals 1000 to 10000 nM

# IC50 (molecule: CNc1ncc2cc(-c3cc(NC(=O)NCCC(C)(C)F)c(F)cc3C)cnc2n1 [Example 34] ) is 100 to 1000 nM

Measured IC50, Cc1cc(F)c(NC(=O)NCC(O)C(C)(C)C)cc1-c1cc2cnc(N)nc2nc1C (centres unmarked) [Example 10] : 1000 to 10000 nM

Quick note, IC50 for CNc1ncc2cc(-c3cc(NC(=O)NCC(O)C(C)(C)C)c(F)cc3F)c(C)nc2n1 (centres unmarked) [Example 11] landed at 1000 to 10000 nM

Form: molecule = CNc1ncc2cc(-c3cc(NC(=O)NCC(O)C(C)(C)C)c(F)cc3C)cnc2n1 (centres unmarked) [Example 8] ; IC50 = 1000 to 10000 nM

====

Test system: HCT-116 cells
Test: HCT-116 cell proliferation assay (resazurin)
Type: cell-based
Conditions: Homo sapiens, K-Ras mutation B-Raf wild type, read-out: Cell Proliferation Inhibition IC50, nM HCT-116
Consider the following compounds and their measured IC50 readings.

Examples with their reported IC50 follow.
compound | IC50
COCCNc1ncc2cc(-c3cc(NC(=O)NC4CC(C)(C)C4)c(F)cc3C)c(C)nc2n1 | 100 to 1000 nM
Cc1cc(F)c(NC(=O)NCCC(C)(C)C)cc1-c1cc2cnc(NCc3cn(C)cn3)nc2nc1C | 100 to 1000 nM
CCNc1ncc2cc(-c3cc(NC(=O)NCCC(C)(C)F)c(F)cc3C)c(C)nc2n1 | 1000 to 10000 nM

Noted for CNc1ncc2cc(-c3cc(NC(=O)NCC4CC4(C)C)c(F)cc3C)cnc2n1 (stereo not shown) : its IC50 reads 1000 to 10000 nM

====

Molecular target: human wild type C-Raf (Homo sapiens)
Construct: made in house
Sequence (P04049 whole entry): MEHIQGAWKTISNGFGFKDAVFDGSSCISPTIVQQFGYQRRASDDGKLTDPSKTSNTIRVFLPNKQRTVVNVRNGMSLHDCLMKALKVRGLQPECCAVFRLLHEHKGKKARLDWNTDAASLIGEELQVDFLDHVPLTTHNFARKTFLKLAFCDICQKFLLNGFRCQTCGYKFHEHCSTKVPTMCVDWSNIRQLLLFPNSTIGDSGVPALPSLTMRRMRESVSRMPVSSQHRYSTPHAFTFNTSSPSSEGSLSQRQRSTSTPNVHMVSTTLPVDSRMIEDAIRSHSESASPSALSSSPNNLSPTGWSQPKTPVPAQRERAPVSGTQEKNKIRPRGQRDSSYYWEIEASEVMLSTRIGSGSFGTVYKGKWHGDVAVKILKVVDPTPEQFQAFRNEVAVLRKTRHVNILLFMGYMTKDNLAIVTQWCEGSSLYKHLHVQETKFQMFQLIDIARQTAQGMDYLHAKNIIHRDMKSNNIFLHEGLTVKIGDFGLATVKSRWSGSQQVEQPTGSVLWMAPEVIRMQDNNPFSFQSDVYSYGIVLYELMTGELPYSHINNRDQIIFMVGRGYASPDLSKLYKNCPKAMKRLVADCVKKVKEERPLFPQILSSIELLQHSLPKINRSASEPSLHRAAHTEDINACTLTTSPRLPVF
Experiment: Enzymatic assay of C-Raf kinase activity (Raf/MEK1 ATPase, coupled PK/LDH, A340)
Type: biochemical
Settings: read-out: Enzyme IC50, nM C-Raf
endpoint.label: IC50

compound | result
CNc1ncc2cc(-c3ccc(F)c(NC(=O)NCCC(C)(C)C)c3)c(C)nc2n1 [Example 2] | < 150 nM
CC(=O)Nc1ncc2cc(-c3cc(NC(=O)NCCC(C)(C)C)c(F)cc3C)c(C)nc2n1 [Example 33] | < 150 nM
CCNc1ncc2cc(-c3cc(NC(=O)NCCC(C)(C)F)c(F)cc3C)c(C)nc2n1 [Example 26] | < 150 nM

From here, focus on the item given below.
Documented IC50 of CNc1ncc2cc(-c3cc(NC(=O)NCCC(C)(C)C)c(F)cc3C)cnc2n1 [Example 35] : < 150 nM

====

Overview of reported IC50 across a group of compounds:
System: HCT-116 cells
Assay: HCT-116 cell proliferation assay (resazurin)
Format: cell-based
Settings: Homo sapiens, K-Ras mutation B-Raf wild type, read-out: Cell Proliferation Inhibition IC50, nM HCT-116

IC50 for `CNc1ncc2cc(-c3ccc(F)c(NC(=O)NCCC(C)(C)C)c3)c(C)nc2n1` is 100 to 1000 nM

Entry `Cc1cc(F)c(NC(=O)NCCC(C)(C)F)cc1-c1cc2cnc(NCCO)nc2nc1C` ; IC50 = 1000 to 10000 nM

Query `CNc1ncc2cc(-c3cc(NC(=O)NC[C@@H](O)C(C)(C)C)c(F)cc3C)cnc2n1` yields IC50 of 1000 to 10000 nM

What the record says about `CNc1ncc2cc(-c3cc(NC(=O)NC4CC(C)(C)C4)c(F)cc3F)c(C)nc2n1` : IC50 is 100 to 1000 nM

====

IC50 overview
System: HCT-116 cells
Test: HCT-116 cell proliferation assay (resazurin)
Assay type: cell-based
Settings: Homo sapiens, K-Ras mutation B-Raf wild type, read-out: Cell Proliferation Inhibition IC50, nM HCT-116

Worked cases, IC50 given:
structure.notation | result
Cc1cc(F)c(NC(=O)NCCC(C)(C)C)cc1-c1cc2cnc(NCCN(C)C)nc2nc1C | 100 to 1000 nM
Cc1cc(F)c(NC(=O)NCCC(C)(C)C)cc1-c1cc2cnc(N)nc2nc1C | 100 to 1000 nM
CNc1ncc2cc(-c3cc(NC(=O)NCCC(C)(C)C(F)(F)F)c(F)cc3C)c(C)nc2n1 | 100 to 1000 nM
Cc1cc(F)c(NC(=O)NCCC(C)(C)F)cc1-c1cc2cnc(N)nc2nc1C | 1000 to 10000 nM

Now for a further compound.
Record `Cc1cc(F)c(NC(=O)NCCC(C)(C)C)cc1-c1cc2cnc(NCCN3CCOCC3)nc2nc1C` ; system HCT-116 cells; IC50 = 100 to 1000 nM
